pIC50: −log10 of the molar value.
Below are molecules with their pIC50 as measured on human CARM1 (PRMT4) (Homo sapiens (Human), UniProt Q86X55).
Sequence (Q86X55 other isoform, or with tags, fused parts or gaps isoform Q86X55-1): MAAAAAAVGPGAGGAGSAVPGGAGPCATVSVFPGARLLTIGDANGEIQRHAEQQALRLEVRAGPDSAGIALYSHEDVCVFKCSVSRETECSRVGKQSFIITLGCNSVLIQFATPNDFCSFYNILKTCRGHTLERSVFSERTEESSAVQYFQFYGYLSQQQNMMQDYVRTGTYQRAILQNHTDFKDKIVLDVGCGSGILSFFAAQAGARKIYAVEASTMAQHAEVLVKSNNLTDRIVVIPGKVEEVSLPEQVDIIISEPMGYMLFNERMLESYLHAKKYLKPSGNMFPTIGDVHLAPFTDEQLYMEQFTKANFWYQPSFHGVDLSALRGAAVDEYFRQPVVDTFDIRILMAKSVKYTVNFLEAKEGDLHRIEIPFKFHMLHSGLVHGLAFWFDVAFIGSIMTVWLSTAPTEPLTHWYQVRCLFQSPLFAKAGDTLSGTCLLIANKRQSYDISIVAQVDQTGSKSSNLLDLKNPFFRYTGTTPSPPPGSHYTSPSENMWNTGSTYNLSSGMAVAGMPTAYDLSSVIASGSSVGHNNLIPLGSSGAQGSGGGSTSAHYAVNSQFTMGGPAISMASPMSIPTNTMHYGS

# molecule, pIC50
measured = [
    ("CCCCOc1nc(-c2ccc(F)c(OCC(O)CNC)c2)nc(-c2c(C)noc2C)c1C (stereo not drawn) [Example 50-3]", "6.00 to 7.00"),
    ("CNCC(O)COc1cc(Cl)cc(-c2nc(-c3c[nH]c4ccccc34)c(C)c(N(C)C3CCOCC3)n2)c1 (stereo not drawn) [Example 625-1a]", "6.00 to 7.00"),
    ("CNCC(O)COc1cccc(-c2nc(N[C@H]3CO[C@H]4OCC[C@H]43)cc(N3CCOCC3)n2)c1 (stereo partly drawn) [Example 373-1a]", "6.00 to 7.00"),
    ("CNCC(O)COc1cccc(-c2nc(N3CCOCC3)cc(N(C3CC3)[C@@H]3CCOC3)n2)c1 (stereo partly drawn) [Example 360-1a]", "6.00 to 7.00"),
    ("CNCC(O)COc1cccc(-c2nc(N3CCN(C(=O)OC)CC3)cc(N(C)C3CCOCC3)n2)c1 (stereo not drawn) [Example 585-1a]", "6.00 to 7.00"),
]

Below are 5 molecules. Give each one its pIC50.
1. CNCC(O)COc1cccc(-c2nc(-c3ncc[nH]3)cc(N(C)C3CCOCC3)n2)c1 (stereo not drawn) [Example 550-1a]
2. CNCC(O)COc1cccc(-c2nc(N[C@@H]3CC[C@H](C(=O)N4CCOCC4)C3)c(C)c(N3CCOCC3)n2)c1 (stereo partly drawn) [Example 681-1a]
3. CNCC(O)COc1cccc(-c2nc(NC3CCOCC3)cc(-c3c(C)n[nH]c3C)n2)c1 (stereo not drawn) [Example 670-1a]
4. CNCC(O)COc1cccc(-c2nc(NC3CCOC3)c(C)c(N3CCCC4(CCOCC4)C3)n2)c1 (stereo not drawn) [Example 401-1a]
5. CNCC(O)COc1cccc(-c2nc(N[C@@H]3CCOC3)c(C)c(N3CCNC(=O)C3)n2)c1 (stereo partly drawn) [Example 380-1a]

1: 6.00 to 7.00; 2: 5.52 to 6.00; 3: 6.00 to 7.00; 4: 6.00 to 7.00; 5: 6.00 to 7.00

Would you mind giving pIC50 for every molecule in the list below?
1. CNCC(O)COc1cccc(-c2nc(NCCOC)cc(-c3ccc(S(C)(=O)=O)cc3)n2)c1 (stereo not drawn) [Example 637-1a]
2. CNCC(O)COc1cccc(-c2nc(-c3c[nH]cn3)cc(N(C)C3CCOCC3)n2)c1 (stereo not drawn) [Example 589-1a]
3. CNCC(O)COc1cccc(-c2nc(N[C@@H]3CCOC3)c(C)c(N3CCC(O)CC3)n2)c1 (stereo partly drawn) [Example 361-1a]
4. CNCC(O)COc1cccc(-c2nc(NC3CCOCC3)c(C(F)F)c(-c3c(C)noc3C)n2)c1 (stereo not drawn) [Example 214-1a]

["6.00 to 7.00", "6.00 to 7.00", "6.00 to 7.00", "6.00 to 7.00"]

Field: pIC50. Fill in for each record below.
1. CNCC(O)COc1cccc(-c2nc(N[C@@H]3CCOC3)c(C)c(-c3ccc(=O)[nH]c3)n2)c1 (stereo partly drawn) [Example 409-1a]
2. CNCC(O)COc1ccc(C#N)c(-c2nc(NC3CCOCC3)c(C)c(-c3c(C)noc3C)n2)c1 (stereo not drawn) [Example 166-3]
3. CNCC(O)COc1cc(Cl)cc(-c2nc(N[C@@H]3CCOC3)c(C)c(C(=O)N(C)CC3CCOCC3)n2)c1 (stereo partly drawn) [Example 353-1a]
4. CNCC(O)COc1cccc(-c2nc(N[C@@H]3CCOC3)c(C)c(N3CCn4c(nnc4C(F)(F)F)C3)n2)c1 (stereo partly drawn) [Example 365-1a]
5. CNCC(O)COc1cccc(-c2nc(OC)c(C)c(-c3c(C)noc3C)n2)c1 (stereo not drawn) [Example 83-1a]
6. CNCC(O)COc1cccc(-c2nc(N3CC[C@H](N(C)C(C)=O)C3)cc(N(C)C3CCOCC3)n2)c1 (stereo partly drawn) [Example 547-1a]
7. CNCC(O)COc1cccc(-c2nc(NC3CCOCC3)c(C)c(N3CCN(C(C)=O)CC3)n2)c1 (stereo not drawn) [Example 643-1a]
8. CNCC(O)COc1cccc(-c2nc(NC3CCOCC3)cc(-c3ccc(C(F)(F)F)nc3)n2)c1 (stereo not drawn) [Example 654-1a]

1. 6.00 to 7.00
2. 6.00 to 7.00
3. 6.00 to 7.00
4. 6.00 to 7.00
5. 6.00 to 7.00
6. 6.00 to 7.00
7. 5.52 to 6.00
8. 6.00 to 7.00

Quick batch: pIC50 for everything below.
1. CNCC(O)COc1cccc(-c2nc(NC3CCOC3)c(C)c(N3CCNC(C(F)(F)F)C3)n2)c1 (stereo not drawn) [Example 419-1a]
2. CNCC(O)COc1cccc(-c2nc(N3CCCC4(CCOCC4)C3)cc(N(C)C3CCOCC3)n2)c1 (stereo not drawn) [Example 494-1a]

6.00 to 7.00
6.00 to 7.00

State the recorded pIC50 for every item in the following list.
1. CNCC(O)COc1cccc(-c2nc(N3CCN(C(C)=O)[C@@H](C)C3)c(C)c(N(C)[C@@H]3CCOC3)n2)c1 (stereo partly drawn) [Example 410-1a]
2. CNCC(O)COc1cccc(-c2nc(N3CCN(CC(F)(F)F)[C@@H](C)C3)cc(N(C)C3CCOCC3)n2)c1 (stereo partly drawn) [Example 594-1a]
3. CNCC(O)COc1cccc(-c2nc(N[C@@H]3CCOC3)c(C3CC3)c(N3CCOCC3)n2)c1 (stereo partly drawn) [Example 413-1a]
4. CNCC(O)COc1cccc(-c2nc(NC3CCOCC3)cc(N(C)C)n2)c1 (stereo not drawn) [Example 8-1]
5. CNCC(O)COc1cccc(-c2nc(N[C@@H]3CCOC3)c(C)c(C(=O)NCC3CCOCC3)n2)c1 (stereo partly drawn) [Example 346-1a]

1: 6.00 to 7.00; 2: 6.00 to 7.00; 3: 6.00 to 7.00; 4: 6.00 to 7.00; 5: 6.00 to 7.00

Write down the reported pIC50 of CNCC(O)COc1cccc(-c2nc(N3CCOCC3)cc(N(C3CCOCC3)C3CC3)n2)c1 (stereo not drawn) [Example 601-1a] , test system: human CARM1 (PRMT4) (Homo sapiens (Human), UniProt Q86X55).
6.00 to 7.00
